Sourced from patent US20100209345A1

# assay info: Biodistribution of 18F-labelled tracers in rats
# Assay type: in vivo
# run conditions: SD rats; 4 hours; decay correction not stated
value kind: Biodistribution: Olfactory bulbs (% ID/g)

• CCN(CC)C(=O)Cc1c(-c2ccc(C(C)(C)C)cc2)nc2ccc([18F])nn12 [PBR132*] = 0.25
• CCN(CC)C(=O)Cc1c(-c2ccc(OCCF)cc2)nc2ccc(Cl)cn12 [PBR102] = 0.40
• CN(C(=O)Cc1c(-c2ccc(OCCCF)cc2)nc2c(Cl)cc(Cl)cn12)c1ccccc1 [PBR 147] = 0.26
• CCN(CC)C(=O)Cc1c(-c2ccc(OCCCF)cc2)nc2ccc(Cl)cn12 [PBR111] = 0.41
• CCN(CC)C(=O)Cc1c(-c2ccc(OCCCF)cc2)nn2c(C)cc(C)nc12 [PBR146*] = 0.31

* * *

# assay info: Biodistribution of 18F-labelled tracers in rats
# Format: in vivo
# run conditions: rats; 4 hours; corrected for decay of 18F
value kind: Biodistribution: Bone (% ID/g)

• CCN(CC)C(=O)Cc1c(-c2ccc(OCCCF)cc2)nc2ccc(Cl)cn12 = 4.32
• CCN(CC)C(=O)Cc1c(-c2ccc(OCCF)cc2)nc2ccc(Cl)cn12 = 1.01
• CCN(CC)C(=O)Cc1c(-c2ccc(C(C)(C)C)cc2)nc2ccc([18F])nn12 = 3.28
• CCN(CC)C(=O)Cc1c(-c2ccc(OCCCF)cc2)nn2c(C)cc(C)nc12 = 4.12

* * *

# assay info: Biodistribution of 18F-labelled tracers in rats
# Assay type: in vivo
# run conditions: SD rats; 4 hours; decay correction not stated
Catalogue of Biodistribution: Adrenals readings, one per entry.
value kind: Biodistribution: Adrenals

* CN(C(=O)Cc1c(-c2ccc(OCCCF)cc2)nc2c(Cl)cc(Cl)cn12)c1ccccc1 [PBR 147] | 11 % ID/g
* CCN(CC)C(=O)Cc1c(-c2ccc(OCCCF)cc2)nn2c(C)cc(C)nc12 [PBR146*] | 12.2 % ID/g
* CCN(CC)C(=O)Cc1c(-c2ccc(OCCCF)cc2)nc2ccc(Cl)cn12 [PBR111] | 16 % ID/g
* CCN(CC)C(=O)Cc1c(-c2ccc(OCCF)cc2)nc2ccc(Cl)cn12 [PBR102] | 11 % ID/g

* * *

# assay info: Biodistribution of 18F-labelled tracers in rats
# Format: in vivo
# run conditions: rats; 15 min; corrected for decay of 18F
# Description: [^18F]Fluoride, in the form of H^18F, was produced by the ^18O(p,n)^18F nuclear reaction by bombardment of ^18O-enriched water target. […] The biodistribution of PBR132* was undertaken in SD rats and analysis up to 4 h p.i. in the brain and peripheral tissues was performed. The specificity and selectivity of the tracer were assessed by pre-treatment with PBR and Central benzodiazepine receptor (CBR) specific ligands (1 mg/kg) 5 min prior to injection of PBR132*. […]
value kind: Biodistribution: Lungs (% ID/g)

- CCN(CC)C(=O)Cc1c(-c2ccc(OCCCF)cc2)nc2ccc(Cl)cn12: 14.39
- CCN(CC)C(=O)Cc1c(-c2ccc(C(C)(C)C)cc2)nc2ccc([18F])nn12: 16.09
- CCN(CC)C(=O)Cc1c(-c2ccc(OCCF)cc2)nc2ccc(Cl)cn12: 14.30
- CCN(CC)C(=O)Cc1c(-c2ccc(OCCCF)cc2)nn2c(C)cc(C)nc12: 20.42
